Experiment: Pharmacokinetics of etoricoxib in plasma, CSF and tissue exudate
Format: in vivo, human
Conditions: human, plasma, po, 120 mg
Reported endpoint: Cmax (ng/mL)
# output: bare number, implied unit ng/mL

Identify the reported Cmax for the following entry. `Cc1ccc(-c2ncc(Cl)cc2-c2ccc(S(C)(=O)=O)cc2)cn1` 1880

* * *

Assay: Pharmacokinetics of etoricoxib in plasma, CSF and tissue exudate
Assay type: in vivo, human
Settings: human, CSF/plasma, oral, 120 mg, Maximal CSF/plasma conc. ratio, individual maximal concentration ratio; mean (SD)
Reported endpoint: Kp
Give your answer as a number; write no unit.

Identify the reported Kp for the following entry. Cc1ccc(-c2ncc(Cl)cc2-c2ccc(S(C)(=O)=O)cc2)cn1 [Etoricoxib, etoricoxib] 0.122

* * *

Assay: Pharmacokinetics of etoricoxib in plasma, CSF and tissue exudate
Format: in vivo, human
Conditions: human, CSF, po, 120 mg
Reported endpoint: Tmax (h)
# output: bare number, implied unit h

Identify the reported Tmax for the following entry. `Cc1ccc(-c2ncc(Cl)cc2-c2ccc(S(C)(=O)=O)cc2)cn1` 1.5

* * *

Experiment: Pharmacokinetics of etoricoxib in plasma, CSF and tissue exudate
Type: in vivo, human
Conditions: human, CSF/plasma, oral, 120 mg, CSF/plasma ratio AUC 0–24 h, individual ratios; mean (range)
Reported endpoint: Kp
Give your answer as a number; write no unit.

Identify the reported Kp for the following entry. `Cc1ccc(-c2ncc(Cl)cc2-c2ccc(S(C)(=O)=O)cc2)cn1` 0.041
